FYI, the data here is from ChEMBL document CHEMBL4725349.

protocol text: Plasma concentration in Swiss albino mouse at 150 mg/kg, ip administered as single dose measured after 12 hrs post dose by LC-MS/MS method
Assay type: ADME, organism-based
measured quantity: concentration at 12 h

Query: Quickly give me recorded concentration at 12 h for Cc1ncsc1-c1ccc([C@H](C)NC(=O)[C@@H]2C[C@@H](O)CN2C(=O)[C@@H](NC(=O)COCCOCCOCCOCCOCC(=O)N2CC(Nc3cc(C(=O)NC[C@H](O)CN4CCc5ccccc5C4)ncn3)C2)C(C)(C)C)cc1
Response: > 0.1 µM

---

protocol text: Plasma concentration in Swiss albino mouse at 150 mg/kg, ip administered as single dose measured at 2 hrs post dose by LC-MS/MS method
Assay type: ADME, organism-based
measured quantity: concentration at 2 h (µM)
Numbers only, in µM.

Query: Quickly give me recorded concentration at 2 h for Cc1ncsc1-c1ccc([C@H](C)NC(=O)[C@@H]2C[C@@H](O)CN2C(=O)[C@@H](NC(=O)COCCOCCOCCOCCOCC(=O)N2CC(Nc3cc(C(=O)NC[C@H](O)CN4CCc5ccccc5C4)ncn3)C2)C(C)(C)C)cc1
Response: 14

---

tested target: PRMT5/MEP50 complex (Homo sapiens, UniProt O14744)
Sequence (O14744 whole entry): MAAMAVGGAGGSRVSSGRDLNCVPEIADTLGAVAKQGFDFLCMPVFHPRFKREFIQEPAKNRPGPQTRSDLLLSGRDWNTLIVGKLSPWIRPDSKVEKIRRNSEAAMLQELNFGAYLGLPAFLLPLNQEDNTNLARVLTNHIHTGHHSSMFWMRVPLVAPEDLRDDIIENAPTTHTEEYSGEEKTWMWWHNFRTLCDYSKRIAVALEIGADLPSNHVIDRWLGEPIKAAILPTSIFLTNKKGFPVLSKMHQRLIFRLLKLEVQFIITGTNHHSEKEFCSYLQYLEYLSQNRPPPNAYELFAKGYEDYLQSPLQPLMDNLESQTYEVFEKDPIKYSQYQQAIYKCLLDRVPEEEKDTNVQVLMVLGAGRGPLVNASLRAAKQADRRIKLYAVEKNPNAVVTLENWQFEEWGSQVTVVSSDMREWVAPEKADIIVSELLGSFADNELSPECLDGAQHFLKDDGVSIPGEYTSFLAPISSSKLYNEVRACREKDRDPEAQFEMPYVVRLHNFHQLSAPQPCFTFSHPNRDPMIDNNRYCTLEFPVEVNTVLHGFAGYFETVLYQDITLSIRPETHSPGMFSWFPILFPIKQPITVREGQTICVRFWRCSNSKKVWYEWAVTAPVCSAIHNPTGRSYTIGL
Sequence (Q9BQA1 whole entry, further chain): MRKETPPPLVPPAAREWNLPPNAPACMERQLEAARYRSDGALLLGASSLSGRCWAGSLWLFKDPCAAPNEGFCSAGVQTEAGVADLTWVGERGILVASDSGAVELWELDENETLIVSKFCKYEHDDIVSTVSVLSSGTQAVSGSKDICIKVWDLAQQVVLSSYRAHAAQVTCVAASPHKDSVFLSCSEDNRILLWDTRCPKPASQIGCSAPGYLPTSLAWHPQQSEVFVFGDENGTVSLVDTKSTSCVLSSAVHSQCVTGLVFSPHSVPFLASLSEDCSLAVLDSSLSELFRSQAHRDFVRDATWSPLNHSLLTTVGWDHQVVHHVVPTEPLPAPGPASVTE
protocol text: Inhibition of human PRMT5/MEP50 assessed as reduction in methyltransferase activity using histone 4 peptide as substrate in presence of [3H]SAM incubated for 30 mins
Exercise: state measured IC50 for each of the compounds provided.
Numbers only, in nM.

# mol, reported
rows = [
    ("Cc1ncsc1-c1ccc([C@H](C)NC(=O)[C@@H]2C[C@@H](O)CN2C(=O)[C@@H](NC(=O)COCCOCCOCCOCCOCC(=O)N2CC(Nc3cc(C(=O)NC[C@H](O)CN4CCc5ccccc5C4)ncn3)C2)C(C)(C)C)cc1", 18),
]

# input for lookup
Query: Quickly give me recorded IC50 for Cc1ncsc1-c1ccc([C@H](C)NC(=O)[C@H]2C[C@H](O)CN2C(=O)[C@@H](NC(=O)COCCOCCOCCOCCOCC(=O)N2CC(Nc3cc(C(=O)NC[C@H](O)CN4CCc5ccccc5C4)ncn3)C2)C(C)(C)C)cc1
Response: 12
